Sourced from patent US20210230570

Tested Target: Factor X (FX), P00742
Sequence (P00742 whole entry, looked up): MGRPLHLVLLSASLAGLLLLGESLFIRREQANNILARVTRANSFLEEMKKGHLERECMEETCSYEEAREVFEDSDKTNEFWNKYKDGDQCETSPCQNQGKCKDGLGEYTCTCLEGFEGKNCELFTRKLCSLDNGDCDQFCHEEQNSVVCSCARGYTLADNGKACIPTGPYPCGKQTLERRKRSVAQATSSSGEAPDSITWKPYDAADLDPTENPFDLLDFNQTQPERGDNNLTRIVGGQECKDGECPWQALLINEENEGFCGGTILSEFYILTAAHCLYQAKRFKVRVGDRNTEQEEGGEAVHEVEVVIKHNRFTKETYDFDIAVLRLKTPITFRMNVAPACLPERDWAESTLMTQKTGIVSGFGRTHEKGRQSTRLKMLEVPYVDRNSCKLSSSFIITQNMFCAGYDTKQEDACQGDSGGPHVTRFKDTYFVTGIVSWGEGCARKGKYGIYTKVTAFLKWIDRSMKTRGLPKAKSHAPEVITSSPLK
Measurement Kind: kcat (s⁻¹)
Give just the numeric value; s⁻¹ need not be written.

Problem: Consider the protein FIXa-Y155F/K247N/N249S/R338E/T343R (protein) chain 1: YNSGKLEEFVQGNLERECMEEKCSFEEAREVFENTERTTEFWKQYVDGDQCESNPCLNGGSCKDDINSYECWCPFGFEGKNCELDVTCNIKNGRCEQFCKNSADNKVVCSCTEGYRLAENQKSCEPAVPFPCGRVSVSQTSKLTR chain 2: VVGGEDAKPGQFPWQVVLNGKVDAFCGGSIVNEKWIVTAAHCVETGVKITVVAGEHNIEETEHTEQNRSVIRIIPHHNYNAAINKYNHDIALLELDEPLVLNSYVTPICIADKEYTNIFLKFGSGYVSGWGRVFHKGRSALVLQYLRVPLVDRATCLESTKFRIYNNMFCAGFHEGGRDSCQGDSGGPHVTEVEGTSFLTGIISWGEECAMKGKYGIYTKVSRYVNWIKEKTKLT . State its measured kcat.
Result: 10.6
